- MEASUREMENT TARGET: ENaC (Epithelial Sodium Channel) (Mus musculus, UniProt Q61180+Q9WU38+Q9WU39)
- Construct: Mouse kidney M-1 cells were cultivated in DMEM containing 5% FCS and 5 μM dexamethasone; endogenous in cells
- Sequence (Q61180 whole entry): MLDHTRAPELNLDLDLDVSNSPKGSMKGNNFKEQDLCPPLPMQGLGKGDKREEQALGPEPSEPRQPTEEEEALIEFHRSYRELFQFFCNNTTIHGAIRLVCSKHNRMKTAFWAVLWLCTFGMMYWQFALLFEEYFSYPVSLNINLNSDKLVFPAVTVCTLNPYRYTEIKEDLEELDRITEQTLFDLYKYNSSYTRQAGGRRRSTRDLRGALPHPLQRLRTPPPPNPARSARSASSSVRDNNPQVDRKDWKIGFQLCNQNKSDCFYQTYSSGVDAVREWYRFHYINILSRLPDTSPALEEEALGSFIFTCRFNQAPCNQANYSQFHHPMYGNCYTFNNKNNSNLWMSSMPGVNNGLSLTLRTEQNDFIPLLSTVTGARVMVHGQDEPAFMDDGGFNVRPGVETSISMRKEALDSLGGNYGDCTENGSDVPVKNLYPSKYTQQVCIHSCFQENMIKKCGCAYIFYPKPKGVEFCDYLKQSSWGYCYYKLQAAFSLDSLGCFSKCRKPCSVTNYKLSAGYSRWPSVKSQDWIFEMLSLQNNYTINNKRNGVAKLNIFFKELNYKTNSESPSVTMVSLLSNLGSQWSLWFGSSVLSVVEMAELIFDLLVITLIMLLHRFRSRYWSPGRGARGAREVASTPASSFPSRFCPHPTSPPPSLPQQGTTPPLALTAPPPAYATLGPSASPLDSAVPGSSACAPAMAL
- Sequence (Q9WU38 whole entry): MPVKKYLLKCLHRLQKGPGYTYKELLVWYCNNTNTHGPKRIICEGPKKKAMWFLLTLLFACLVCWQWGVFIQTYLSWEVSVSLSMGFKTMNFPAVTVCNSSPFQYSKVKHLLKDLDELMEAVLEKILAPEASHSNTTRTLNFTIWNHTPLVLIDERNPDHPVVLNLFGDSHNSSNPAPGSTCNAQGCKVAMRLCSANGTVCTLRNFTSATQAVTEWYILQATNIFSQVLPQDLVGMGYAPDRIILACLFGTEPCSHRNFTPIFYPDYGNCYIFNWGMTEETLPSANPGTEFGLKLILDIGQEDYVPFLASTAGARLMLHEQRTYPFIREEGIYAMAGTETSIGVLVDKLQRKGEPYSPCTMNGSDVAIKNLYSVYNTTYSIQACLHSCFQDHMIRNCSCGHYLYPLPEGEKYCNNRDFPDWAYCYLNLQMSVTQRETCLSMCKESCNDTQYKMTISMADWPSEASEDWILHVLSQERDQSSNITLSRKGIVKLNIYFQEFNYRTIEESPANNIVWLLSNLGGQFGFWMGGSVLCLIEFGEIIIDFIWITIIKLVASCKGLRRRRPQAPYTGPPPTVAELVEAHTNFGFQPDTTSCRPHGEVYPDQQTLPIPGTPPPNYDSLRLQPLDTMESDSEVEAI
- Sequence (Q9WU39 whole entry): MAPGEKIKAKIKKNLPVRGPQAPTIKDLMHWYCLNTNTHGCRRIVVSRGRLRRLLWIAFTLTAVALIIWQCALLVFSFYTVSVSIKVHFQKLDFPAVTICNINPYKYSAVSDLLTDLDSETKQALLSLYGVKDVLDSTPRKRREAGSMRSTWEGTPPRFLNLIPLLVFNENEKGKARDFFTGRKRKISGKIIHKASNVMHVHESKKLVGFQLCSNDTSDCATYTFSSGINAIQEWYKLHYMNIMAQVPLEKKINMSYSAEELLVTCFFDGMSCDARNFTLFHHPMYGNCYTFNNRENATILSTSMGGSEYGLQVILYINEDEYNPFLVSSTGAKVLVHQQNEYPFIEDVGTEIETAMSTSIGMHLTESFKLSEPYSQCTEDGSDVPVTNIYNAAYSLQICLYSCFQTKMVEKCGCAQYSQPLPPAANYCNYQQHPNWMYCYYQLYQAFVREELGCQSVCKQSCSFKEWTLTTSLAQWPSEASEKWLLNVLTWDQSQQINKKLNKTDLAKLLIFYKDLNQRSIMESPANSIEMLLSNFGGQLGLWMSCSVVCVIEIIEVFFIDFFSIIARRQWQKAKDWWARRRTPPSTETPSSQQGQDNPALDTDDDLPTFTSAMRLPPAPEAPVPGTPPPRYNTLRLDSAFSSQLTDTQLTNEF
- EXPERIMENT SUMMARY: Ussing Chamber assay (short circuit current, amiloride sensitive I_SC) in M-1 cells
- EXPERIMENTAL PARAMETERS: Mouse kidney M-1 cells, apical application, 37° C.
pIC50: −log10 of the molar value.
QUANTITY NAME: pIC50

>  <COMPOUND>
CCn1c(CNC(=O)c2nc(Cl)c(N)nc2N)[n+](CC)c2cc(C(=O)O)c(N3CCOCC3)cc21 [Example 6.01]

>  <MEASUREMENT TARGET>
ENaC (Epithelial Sodium Channel) (Mus musculus, UniProt Q61180+Q9WU38+Q9WU39)

>  <pIC50>
7.85

$$$$

(1) CCNC(=O)COc1cc2c(cc1C(=O)NC1CCNCC1)[n+](CC)c(CNC(=O)c1nc(Cl)c(N)nc1N)n2CC [Example 6.03]
(2) CCn1c(CNC(=O)c2nc(Cl)c(N)nc2N)[n+](CC)c2ccc(C(=O)NCCN(C)C)cc21.Cl.[Cl-] [Example 3.06]
(3) CCn1c(CNC(=O)c2nc(Cl)c(N)nc2N)[n+](CC)c2ccc(OCC(=O)NC3CCNCC3)cc21 [Example 3.24]
Put the items in order so that reported pIC50 rises from first to last. Form field (ranking): labels in requested order.
1, 2, 3

(1) CCn1c(CNC(=O)c2nc(Cl)c(N)nc2N)[n+](CC)c2ccc(OCCNC(=O)C3CCCN3C)cc21 (stereo not shown) [Example 4.06]
(2) CC[n+]1c(CNC(=O)c2nc(Cl)c(N)nc2N)n(CC2CCCCC2)c2cc(OCC[n+]3cccc(O)c3)ccc21 [Example 1.03]
Looking at 1 and 2 , which one comes out lower in pIC50 terms? Could you answer with the label of the item you picked?
2
